PROTOCOL: Anti-inflammatory activity (carrageenin induced edema test)
Format: in vivo, male rats of Spargue Dawley strain
COND: oral, 30 min before carrageenin; 5 hours after carrageenin; mg/kg: ASA 100, its ester 173, XAA 120, its ester 186, TAA 60, its ester 88
// F strictly below 30% in % Edema Inhibition, 5 hours; T otherwise

- COMPOUND: "O=C(O)c1ccccc1Nc1cccc(C(F)(F)F)c1"
  DISCRETE LABEL: "F"
- COMPOUND: "CC(=O)Oc1ccccc1C(=O)O"
  DISCRETE LABEL: "F"
- COMPOUND: "O=C(OC1OC(=O)c2ccccc21)c1ccccc1Nc1cccc(C(F)(F)F)c1 (centres unmarked)"
  DISCRETE LABEL: "T"
- COMPOUND: "CC(=O)Oc1ccccc1C(=O)OC1OC(=O)c2ccccc21 (centres unmarked) [Phthalidyl acetylsalicylate, Phthalydil o-acetylsalicylate]"
  DISCRETE LABEL: "T"
